# IC50 values compiled below
Biological target: GLUT1 (Homo sapiens, UniProt P11166)
Experiment: Indirect measurement of GLUT1 activity by quantification of intracellular ATP levels (glucose induced ATP increase)
Type: cell-based
Parameters: endogenous in cells; host or cells: DLD1 or CHO-K1
Details: read-out: IC50 regarding glucose induced ATP increase (GLUT1 inhibition)
READOUT_KIND: IC50 (nM)

item_smiles=COc1cccc(Cn2nc(C(F)(F)F)c(NC(=O)c3cc(C(N)=O)nc4cc(F)c(Cl)cc34)c2C)c1 readout_number=1.9
item_smiles=Cc1cccc(Cn2nc(C)c(NC(=O)c3cc(C(N)=O)nc4ccc(Br)cc34)c2C)c1 readout_number=4.3
item_smiles=COC(=O)[C@@H](NC(=O)c1ccc(Cn2nc(C)c(NC(=O)c3cc(C(F)(F)F)nc4ccc(Br)cc34)c2C)cc1)[C@@H](C)O readout_number=47.8
item_smiles=COc1cc(C(=O)Nc2c(C)nn(Cc3ccc(F)cc3F)c2C)c2ccccc2n1 readout_number=12.2
item_smiles=Cc1c(NC(=O)c2cc(C(N)=O)nc3ccccc23)c(C(F)(F)F)nn1Cc1ccc(C#N)cc1 readout_number=4.7
item_smiles=Cc1nn(Cc2ccccc2C#N)c(C)c1NC(=O)c1cc(C(F)(F)F)nc2c(Cl)cc(Cl)cc12 readout_number=148
item_smiles=CCS(=O)(=O)N1CCC(Cn2nc(C(F)(F)F)c(NC(=O)c3cc(C(N)=O)nc4ccccc34)c2C)CC1 readout_number=33.7

---

Molecular target: UniProt:P11166
Experiment: Indirect measurement of GLUT1 activity by quantification of intracellular ATP levels (glucose induced ATP increase)
Format: cell-based
Design: endogenous in cells; host or cells: DLD1 or CHO-K1
Conditions: read-out: IC50 regarding glucose induced ATP increase (GLUT1 inhibition)
pIC50: −log10 of the molar value.
Criterion: pIC50 meeting or surpassing 8. Met: true (1). Not met: false (0).

item_smiles=Cc1nn(Cc2ncccc2C#N)c(C)c1NC(=O)c1cc(C(N)=O)nc2cccc(F)c12 cat="false (0)"
item_smiles=Cc1c(NC(=O)c2cc(C(N)=O)nc3ccccc23)c(C(F)(F)F)nn1Cc1ccc(C#N)s1 cat="false (0)"
item_smiles=Cc1ccc2nc(C)cc(C(=O)Nc3c(C)nn(Cc4c(F)cccc4F)c3C)c2c1 cat="false (0)"
item_smiles=CNC(=O)CN(C)C(=O)c1ccc(Cn2nc(C)c(NC(=O)c3cc(C(F)(F)F)nc4ccc(Br)cc34)c2C)cc1 cat="false (0)"
item_smiles=Cc1nn(Cc2ccc(C(=O)N3CCC3)cc2)c(C)c1NC(=O)c1cc(C(F)(F)F)nc2ccc(Br)cc12 cat="true (1)"
item_smiles=Cc1c(NC(=O)c2cc(C(N)=O)nc3ccccc23)c(C(F)(F)F)nn1Cc1cccc(C#N)n1 cat="false (0)"

---

Biological target: GLUT1 (Homo sapiens, UniProt P11166)
Sequence (P11166 1-492): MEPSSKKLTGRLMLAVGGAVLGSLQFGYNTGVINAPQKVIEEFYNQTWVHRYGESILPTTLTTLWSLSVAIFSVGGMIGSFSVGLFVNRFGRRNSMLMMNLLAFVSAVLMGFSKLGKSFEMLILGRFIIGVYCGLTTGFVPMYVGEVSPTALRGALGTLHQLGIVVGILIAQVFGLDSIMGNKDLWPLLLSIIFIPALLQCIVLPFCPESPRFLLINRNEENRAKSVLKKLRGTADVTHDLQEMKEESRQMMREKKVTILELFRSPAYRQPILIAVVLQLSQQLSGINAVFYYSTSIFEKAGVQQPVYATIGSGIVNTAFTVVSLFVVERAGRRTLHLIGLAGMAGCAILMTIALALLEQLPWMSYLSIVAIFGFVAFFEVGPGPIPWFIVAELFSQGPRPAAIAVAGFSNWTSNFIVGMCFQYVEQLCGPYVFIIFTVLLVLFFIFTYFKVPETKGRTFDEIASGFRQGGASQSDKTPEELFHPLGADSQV
Assay: Indirect measurement of GLUT1 activity by quantification of intracellular ATP levels (glucose induced ATP increase)
Type: cell-based
Parameters: endogenous in cells; host or cells: DLD1 or CHO-K1
Conditions: read-out: IC50 regarding glucose induced ATP increase (GLUT1 inhibition)
As shown below, each of these molecules has a reported IC50 value.
READOUT_KIND: IC50 (nM)

molecule="Cc1nn(C(C)c2ccccc2)c(C)c1NC(=O)c1cc(C(N)=O)nc2ccccc12 (racemic) [Example 1362]" rel== readout_number=5.8
molecule="Cc1c(NC(=O)c2cc(C(N)=O)nc3ccc(Br)cc23)c(C(F)(F)F)nn1Cc1ccc(F)c(F)c1 [Example 1445]" rel== readout_number=5.7
molecule="CC(=O)Nc1ccc2nc(C(F)(F)F)cc(C(=O)Nc3c(C)nn(Cc4ccc(F)cc4)c3C)c2c1 [Example 1169]" rel== readout_number=182
molecule="Cc1nn(Cc2ccc(C(=O)NCCO)cc2)c(C)c1NC(=O)c1cc(C(F)(F)F)nc2ccc(Br)cc12 [Example 139]" rel== readout_number=31.7
molecule="CNC(=O)N1CCC(Cn2nc(C)c(NC(=O)c3cc(C(N)=O)nc4ccccc34)c2C)CC1 [Example 1247]" rel== readout_number=1670
molecule="Cc1c(NC(=O)c2cc(C(N)=O)nc3ccc(Br)cc23)c(C(F)(F)F)nn1Cc1ccccc1C#N [Example 274]" rel== readout_number=1
molecule="CC(C)c1nn(Cc2ccc(F)cc2)c(C(C)C)c1NC(=O)c1cc(C(F)(F)F)nc2cc(F)c(F)cc12 [Example 1357]" rel=> readout_number=13000
molecule="Cc1cc(F)ccc1Cn1nc(C(F)(F)F)c(NC(=O)c2cc(C(N)=O)nc3cc(F)ccc23)c1C [Example 1710]" rel== readout_number=3.8
molecule="Cc1nn(C(C)CCc2ccc(F)cc2)c(C)c1NC(=O)c1cc(C(N)=O)nc2cc(F)c(Cl)cc12 (racemic) [Example 1380]" rel== readout_number=3.7
molecule="Cc1nn(Cc2ccc(C(=O)NCCN3CCOCC3)cc2)c(C)c1NC(=O)c1cc(C(F)(F)F)nc2ccc(Br)cc12 [Example 136]" rel== readout_number=9
molecule="COc1cc(C(=O)Nc2c(C(F)(F)F)nn(Cc3ccc(C#N)nc3)c2C)c2ccccc2n1 [Example 1128]" rel== readout_number=86.5
molecule="COc1cc(C(=O)Nc2c(C)nn(Cc3c(F)cccc3F)c2C)c2ccccc2n1 [Example 42]" rel== readout_number=30.9
molecule="Cc1nn(Cc2ccc(C(=O)N[C@H]3CC[C@H](O)CC3)cc2)c(C)c1NC(=O)c1cc(C(F)(F)F)nc2ccc(Br)cc12 [Example 1053]" rel== readout_number=13.7
molecule="Cc1nn(Cc2ccn(C)n2)c(C)c1NC(=O)c1cc(C(F)(F)F)nc2ccc(Br)cc12 [Example 187]" rel== readout_number=131
molecule="Cc1c(NC(=O)c2cc(C(F)(F)F)nc3ccc(Br)cc23)c(C(F)(F)F)nn1Cc1ccncc1 [Example 1365]" rel== readout_number=167

---

Target: GLUT1 (Homo sapiens, UniProt P11166)
Sequence (P11166 1-492): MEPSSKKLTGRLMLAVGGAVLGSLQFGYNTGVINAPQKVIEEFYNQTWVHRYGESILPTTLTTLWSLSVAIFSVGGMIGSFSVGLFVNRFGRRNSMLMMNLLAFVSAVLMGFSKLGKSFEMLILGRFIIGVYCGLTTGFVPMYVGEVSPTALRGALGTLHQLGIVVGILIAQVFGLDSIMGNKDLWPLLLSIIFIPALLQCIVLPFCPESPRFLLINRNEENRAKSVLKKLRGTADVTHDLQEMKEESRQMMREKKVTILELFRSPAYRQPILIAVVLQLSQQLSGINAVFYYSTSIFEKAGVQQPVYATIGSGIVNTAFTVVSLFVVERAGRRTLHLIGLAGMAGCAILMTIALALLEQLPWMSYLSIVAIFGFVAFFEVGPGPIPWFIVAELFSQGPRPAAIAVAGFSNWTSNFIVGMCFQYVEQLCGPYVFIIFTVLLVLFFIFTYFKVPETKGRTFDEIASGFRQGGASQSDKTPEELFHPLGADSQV
Assay: Indirect measurement of GLUT1 activity by quantification of intracellular ATP levels (glucose induced ATP increase)
Assay type: cell-based
Design: endogenous in cells; host or cells: DLD1 or CHO-K1
Details: read-out: IC50 regarding glucose induced ATP increase (GLUT1 inhibition)
pIC50: −log10 of the molar value.
Quick rule: pIC50 of at least 8 means YES, below that means NO.

item_smiles=Cc1ccc2nc(C)cc(C(=O)Nc3c(C)nn(Cc4ccc(C#N)nc4)c3C)c2c1 cat=NO
item_smiles=Cc1nn(Cc2cc(C3CC3)on2)c(C)c1NC(=O)c1cc(C(N)=O)nc2cc(F)ccc12 cat=YES
item_smiles=Cc1c(NC(=O)c2cc(C(N)=O)nc3cc(F)ccc23)c(C(F)(F)F)nn1Cc1ccc(F)cc1C#N cat=YES
item_smiles=Cc1nn(Cc2ccc(F)cc2)c(C)c1NC(=O)c1cc(C2CC2)nc2c(C(F)(F)F)cccc12 cat=NO
